B1: SERPINB5 (parent)
chain: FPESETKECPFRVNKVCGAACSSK

Variants of: B1
Method Notes: protein stability index of a GFP-peptide fusion (GPS, HEK-293T) (PSI 1-6); higher = more stable;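 note: lentivirally expressed fusions sorted by FACS into six bins by GFP to DsRed ratio, PSI derived from sequencing read proportions per bin multiplied by bin number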
Cond: c terminus: a fixed tail appended
Listing of entries alongside the reported protein stability index.
Answer using only a numeral; do not append any unit.

P10C | 3.05

Entry under review: A19L . Reported protein stability index? 2.96

Also need K15C , thanks. 3.04

Next variant: A19D 3.03

Item: S22G 3.07

Then what about the variant F11Y ? 2.99

Same question for V16A please. 3.03

Another variant to look at: K24D 2.94
